# Tested on: castrated (CX) immature male rats
# protocol.text: Systemic androgenic (agonistic) activity in orchidectomized (CX) immature male rats
# Assay type: in vivo, rat
# applied.conditions: 0.1 mg/rat/po, 7 days, seminal vesicles weight
Values of CX Agonistic activity % Stimulation SV greater than or equal to 20% map to TRUE; values below map to FALSE.

cpd.smiles	assay.target	label.class
CC1(C)C(=O)N(c2ccc(C#N)c(Cl)c2)C(=O)N1CCCOc1ccc(-c2cc[n+]([O-])cc2)cc1Cl	castrated (CX) immature male rats	FALSE
CC1(C)C(=O)N(c2ccc(C#N)c(Cl)c2)C(=O)N1CCCOc1ccc(-c2ccncc2)cc1Cl	castrated (CX) immature male rats	FALSE
Cc1c(N2C(=O)N(CCCOc3ccc4ccc[n+]([O-])c4c3)C(C)(C)C2=O)ccc(C#N)c1Cl	castrated (CX) immature male rats	FALSE
Cc1c(N2C(=O)C(C)(C)N(CCCOc3ccc(-c4ccncc4)c(C(F)(F)F)c3)C2=S)ccc(C#N)c1C(F)(F)F	castrated (CX) immature male rats	TRUE
Cc1c(N2C(=O)C(C)(C)N(CCCOc3ccc4ncccc4c3)C2=S)ccc(C#N)c1Cl	castrated (CX) immature male rats	TRUE
Cc1c(N2C(=O)C(C)(C)N(CCCOc3ccc(-c4ccncc4)c(F)c3)C2=S)ccc(C#N)c1Cl	castrated (CX) immature male rats	TRUE

====

# assay.target: Human Androgen Receptor (Homo sapiens (Human))
# Sequence (P10275 whole entry): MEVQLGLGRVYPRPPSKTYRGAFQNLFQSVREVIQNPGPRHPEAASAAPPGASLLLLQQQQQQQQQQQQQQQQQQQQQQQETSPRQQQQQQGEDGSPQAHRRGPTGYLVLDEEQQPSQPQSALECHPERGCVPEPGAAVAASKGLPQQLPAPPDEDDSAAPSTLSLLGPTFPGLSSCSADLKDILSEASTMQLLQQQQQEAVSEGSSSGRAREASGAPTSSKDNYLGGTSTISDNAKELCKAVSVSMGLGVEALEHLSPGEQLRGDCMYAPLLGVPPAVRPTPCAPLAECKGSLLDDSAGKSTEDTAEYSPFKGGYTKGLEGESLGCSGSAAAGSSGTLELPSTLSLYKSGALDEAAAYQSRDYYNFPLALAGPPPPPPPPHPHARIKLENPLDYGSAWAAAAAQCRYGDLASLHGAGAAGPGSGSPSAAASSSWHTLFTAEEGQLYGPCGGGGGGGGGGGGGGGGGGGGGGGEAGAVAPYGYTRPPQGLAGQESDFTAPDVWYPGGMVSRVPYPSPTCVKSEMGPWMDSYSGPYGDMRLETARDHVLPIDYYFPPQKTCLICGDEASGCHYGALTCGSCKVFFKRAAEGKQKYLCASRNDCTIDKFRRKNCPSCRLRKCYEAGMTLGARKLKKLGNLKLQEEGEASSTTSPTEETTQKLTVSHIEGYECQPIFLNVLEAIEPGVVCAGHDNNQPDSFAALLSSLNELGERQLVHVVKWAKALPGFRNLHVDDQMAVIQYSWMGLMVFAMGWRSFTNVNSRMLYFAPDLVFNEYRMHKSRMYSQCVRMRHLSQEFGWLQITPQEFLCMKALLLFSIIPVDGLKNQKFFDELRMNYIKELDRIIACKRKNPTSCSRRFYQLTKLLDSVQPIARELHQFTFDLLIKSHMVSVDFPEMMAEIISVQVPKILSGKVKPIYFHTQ
# protocol.text: Androgen receptor assay: [3H]R1881 displacement, cytosol of HEK-293 cells transfected with hAR (hydroxylapatite assay)
# Type: binding
# applied.conditions: relative binding affinity, R1881 = 100; transfected cells
Listing: Human Androgen Receptor Binding RBA (%) R1881 = 100 of selected compounds
measurement.name: Human Androgen Receptor Binding RBA (%) R1881 = 100

compound	assay.target	unit.of.measurement	endpoint.result
Cc1c(N2C(=O)C(C)(C)N(CCCOc3ccc(-c4ccc(N(C)C)nc4)cc3)C2=S)ccc(C#N)c1Cl [EM-8993]	Human Androgen Receptor (Homo sapiens (Human))	%	4.8
CC1(C)C(=O)N(c2ccc(C#N)c(C(F)(F)F)c2)C(=O)N1CCCOc1ccc(-c2cc[n+]([O-])cc2)c(F)c1 [EM-9067]	Human Androgen Receptor (Homo sapiens (Human))	%	2.4
CC1(C)C(=O)N(c2ccc(C#N)c(C(F)(F)F)c2)C(=O)N1CCOc1ccc(-c2cc[n+]([O-])cc2)cc1 [EM-9180]	Human Androgen Receptor (Homo sapiens (Human))	%	1.7
Cc1c(N2C(=O)N(c3ccc(-c4cccnc4)cc3)C(C)(C)C2=O)ccc(C#N)c1C(F)(F)F [EM-9342]	Human Androgen Receptor (Homo sapiens (Human))	%	0.4
CC1(C)C(=O)N(c2ccc(C#N)c(C(F)(F)F)c2)C(=S)N1CCCCOc1ccc(-c2cccnc2)cc1 [EM-9070]	Human Androgen Receptor (Homo sapiens (Human))	%	191
Cc1c(N2C(=O)C(C)(C)N(CCCOc3ccc(-c4ccncc4)cn3)C2=S)ccc(C#N)c1Cl [EM-8815]	Human Androgen Receptor (Homo sapiens (Human))	%	159
Cc1c(N2C(=O)N(CCCOc3ccc(-c4cc[n+]([O-])cc4)c(F)c3)C(C)(C)C2=O)ccc(C#N)c1F [EM-9208]	Human Androgen Receptor (Homo sapiens (Human))	%	2.2
Cc1c(N2C(=O)C(C)(C)N(CCCOc3ccc(-c4ccncc4)c(F)c3)C2=S)ccc(C#N)c1C(F)(F)F [EM-8797]	Human Androgen Receptor (Homo sapiens (Human))	%	400
Cc1c(N2C(=O)C(C)(C)N(CCCOc3ccc4cnccc4c3)C2=S)ccc(C#N)c1Cl [EM-8869]	Human Androgen Receptor (Homo sapiens (Human))	%	56
CC1(C)C(=O)N(c2ccc(C#N)c(C(F)(F)F)c2)C(=O)N1CCCOc1ccc(-c2ccncc2)cc1F [EM-9055]	Human Androgen Receptor (Homo sapiens (Human))	%	7.3
Cc1c(N2C(=O)N(CCCOc3ccc(-c4cc[n+]([O-])cc4F)cc3)C(C)(C)C2=O)ccc(C#N)c1Cl [EM-9318]	Human Androgen Receptor (Homo sapiens (Human))	%	46.1
Cc1c(N2C(=O)C(C)(C)N(CCCOc3ccc(-c4ccncc4)c(C(F)(F)F)c3)C2=S)ccc(C#N)c1C(F)(F)F [EM-8821]	Human Androgen Receptor (Homo sapiens (Human))	%	28.3

These data points were gathered from patent US9682960B2.
